# Target or test system: T1, human chemokine (C-C motif) receptor 8 (CCR8) (human, UniProt P51685 1-355)
# T1 construct: On human peripheral blood lymphocytes / PBMC (native) or on human CCR8 GFP-transfected Ba/F3 cells; also called hCCR8; human CCR8
# T1 sequence (P51685 whole entry): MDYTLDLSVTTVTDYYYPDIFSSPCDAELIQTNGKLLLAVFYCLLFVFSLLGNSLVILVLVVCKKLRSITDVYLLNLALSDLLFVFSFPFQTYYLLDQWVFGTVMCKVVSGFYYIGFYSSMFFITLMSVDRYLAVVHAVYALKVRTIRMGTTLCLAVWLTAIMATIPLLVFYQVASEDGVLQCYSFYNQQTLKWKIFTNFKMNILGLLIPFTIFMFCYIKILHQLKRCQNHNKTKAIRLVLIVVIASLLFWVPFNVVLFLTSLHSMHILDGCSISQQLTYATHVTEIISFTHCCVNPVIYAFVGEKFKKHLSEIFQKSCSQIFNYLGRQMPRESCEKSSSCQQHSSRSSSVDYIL
# Run description: flow cytometry blocking, PBMC CCR8+ CD4+ cells; competitor PE-AB11 (its MFI is read)
# Experimental: For blocking studies, 100 μL of the cell suspension were incubated with 10 μg purified isotype control, AB1, AB2, AB3, AB4, AB5, AB8, AB9, AB10, AB11, AB12, AB13, AB14, AB15, and Commercial ABI antibodies, or isotype control, as blocking agents. […]
Observable: % Blocking (%)
# output: bare number, implied unit %

Look over these answered cases.
Binder: AB4 (antibody, V domains shown, Hybridoma monoclonal; also called antibody 4; clone 4) VH: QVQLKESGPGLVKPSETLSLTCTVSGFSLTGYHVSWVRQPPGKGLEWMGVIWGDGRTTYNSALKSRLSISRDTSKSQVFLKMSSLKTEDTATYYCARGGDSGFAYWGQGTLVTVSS VL: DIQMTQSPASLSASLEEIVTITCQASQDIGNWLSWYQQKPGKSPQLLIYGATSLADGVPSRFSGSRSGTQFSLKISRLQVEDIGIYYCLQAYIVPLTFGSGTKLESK
Numeric value: -13.3

Binder: AB14 (antibody, V domains shown, Hybridoma monoclonal; also called antibody 14; clone 14) VH: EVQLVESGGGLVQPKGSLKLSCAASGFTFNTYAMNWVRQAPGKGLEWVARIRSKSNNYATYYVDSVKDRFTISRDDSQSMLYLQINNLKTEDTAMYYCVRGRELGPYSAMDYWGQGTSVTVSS VL: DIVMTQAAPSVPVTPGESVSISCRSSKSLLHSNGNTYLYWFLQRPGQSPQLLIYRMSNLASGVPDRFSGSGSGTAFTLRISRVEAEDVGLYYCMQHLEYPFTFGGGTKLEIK
Numeric value: 44.4

Shift focus to the following entry.
Query :: Retrieve % Blocking measured for AB15 (antibody, V domains shown, Hybridoma monoclonal; also called antibody 15; clone 15) VH: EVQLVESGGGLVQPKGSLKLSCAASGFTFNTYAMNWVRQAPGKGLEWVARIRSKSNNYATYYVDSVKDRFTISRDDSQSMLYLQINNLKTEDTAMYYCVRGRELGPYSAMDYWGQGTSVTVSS VL: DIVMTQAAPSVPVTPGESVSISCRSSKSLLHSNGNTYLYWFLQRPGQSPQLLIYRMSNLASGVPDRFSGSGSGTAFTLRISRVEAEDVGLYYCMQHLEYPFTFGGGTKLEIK and print it.
Result :: 20.9

Data provenance is patent US20240360228A1.
